Listing of recorded IC50 CD23 by entry.
assayed_system: recombinant human IL-13 (human, UniProt P35225 35-146)
Sequence (P35225 35-146 limits assumed): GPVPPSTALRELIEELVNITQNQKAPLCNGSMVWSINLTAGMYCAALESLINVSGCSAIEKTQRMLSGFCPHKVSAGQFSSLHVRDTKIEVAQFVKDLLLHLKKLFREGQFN
method_summary: cell-based or functional assay

| binder | IC50 CD23 / nM |
| --- | --- |
| BDG38.077 (antibody, V domains shown, IgG1) VH: QMQLVESGGGVVQPGRSLTLSCAASGFAFRTYGMHWVRQAPGKGLEWVGVIWYDGSATHYADSVKGRFTITRDNSKNTLNLQMNSLRAEDTAVYYCVRAPQWYLTAEAFDLWGQGTMVTVSS VL: SYVLTQPPSVSVAPGETATITCGGALIGSRLVHWYQQKPGQAPVLVIYDDSDRPSRIPERFSGSNIGNTATLTISDVEAGDEADYYCQVWDHSSNTYVFGGGTKLTVL | 0.0124 |
| BDG38.106 (antibody, V domains shown, IgG1) VH: QMQLVESGGGVVQPGRSLTLSCAASGFEFRTYGMHWVRQAPGKGLEWVAVIWDDGSNTVYADSVKGRFTITRDNSKNTLNLQMNSLRVEDTAVYYCVRAPQWYLTAEAFDLWGQGTMVTVSS VL: SYILTQPPSVSVAPGQTATITCGGNLIGSRLVHWYQQKPGQAPVLVIYDDSDRPSRIPERFSGSNIGNTATLTIEDVEEGDEADYYCQVWDHYSDHMVFGGGTKLTVL | 0.162 |
| BDG38.125 (antibody, V domains shown, IgG1) VH: QMQLVESGGGVVQPGRSLRLSCAASGFEFRTYGMHWVRQAPGKGLEWVAVIWDDGSNTHYADSVKGRFTITRDNSKNTLNLQMNSLRAEDTAVYYCVRAPQWYLTAEAFDLWGQGTMVTVSS VL: SYVLTQPPSVSVAPGETATITCGGNLIGARLVHWYQQKPGQAPVLVIYDDSDRPSRIPERFSGSNIGNTATLTIERVEEGDEADYYCQVWDYSSDHMVFGGGTKLTVL | 0.0527 |
